As shown below, each of these molecules has a reported inhibition at 10 µM value.
- targetOrSystem: human LXRα (Homo sapiens, UniProt Q13133)
- Construct: DNA constructs encoding human LBD domains of human PPARα, PPARγ, of LXRα (pGAL4-PPARα, pGAL4-PPARγ, pGAL4-LXRα); expressed in transfected cells; host or cells: HepG2
- Sequence (Q13133 209-447 limits assumed): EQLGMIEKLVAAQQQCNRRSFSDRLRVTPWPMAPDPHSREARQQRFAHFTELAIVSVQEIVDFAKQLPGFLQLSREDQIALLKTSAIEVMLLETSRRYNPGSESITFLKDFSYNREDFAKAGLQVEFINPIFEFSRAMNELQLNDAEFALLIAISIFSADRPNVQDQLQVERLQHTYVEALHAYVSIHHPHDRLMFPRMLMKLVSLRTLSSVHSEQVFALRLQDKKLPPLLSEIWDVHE
- experimentSummary: LXRα luciferase reporter gene assay, inhibition of activation by GW3965 (pGAL4-LXRα / pGL5-UAS 9x) in HepG2 cells
- Format: cell-based
- assayConditions: HepG2, 24 h; read-out: LXRα antagonism
- Experimental: Bezafibrate, GW7647 and WY14643 are known PPARα ligands. […] GW3965 is known high-affinity LXRα ligand. Inverse agonistic/antagonistic activities of tested compounds to LXRα receptor activated by the LXRα agonist GW3965(10 µM). […] Negative value indicates inverse agonism. In HepG2 cells, luciferase gene reporter assays have been performed with the transiently transfected reporter gene luciferase construct with the UAS yeast binding site interacting with GAL4 protein (pGL5-UAS 9x, Promega). […]
Response body: numeric value in %, unit text excluded.

Here is how some molecules turned out for inhibition at 10 µM.
CC(Oc1ccc(NCc2ccc3c(Cl)cc(Cl)cc3n2)cc1)C(=O)O (stereo not drawn); 5
C[C@@H](Oc1ccc(Oc2ccc3c(Br)cccc3n2)cc1)C(=O)O; 48
C[C@@H](Oc1ccc(Oc2ccc3c(Cl)cccc3n2)cc1)C(=O)O; 39
C[C@@H](Oc1ccc(Oc2ccc3ccc(Cl)cc3n2)cc1)C(=O)O; 63

I looked up CCc1ccc2ccc(Oc3ccc(O[C@H](C)C(=O)O)cc3)nc2c1 and its inhibition at 10 µM for human LXRα (Homo sapiens, UniProt Q13133) was 7

I looked up C[C@@H](Oc1ccc(Oc2ccc3c(C(F)(F)F)cccc3n2)cc1)C(=O)O and its inhibition at 10 µM for human LXRα (Homo sapiens, UniProt Q13133) was 48

I looked up Cc1cc(C)c2ccc(Oc3ccc(O[C@H](C)C(=O)O)cc3)nc2c1 and its inhibition at 10 µM for human LXRα (Homo sapiens, UniProt Q13133) was 43

I looked up C[C@@H](Oc1ccc(Oc2ccc3ccc(Br)cc3n2)cc1)C(=O)O and its inhibition at 10 µM for human LXRα (Homo sapiens, UniProt Q13133) was 43

I looked up C[C@@H](Oc1ccc(Oc2ccc3c(Cl)cc(Cl)cc3n2)cc1)C(=O)O and its inhibition at 10 µM for human LXRα (Homo sapiens, UniProt Q13133) was 41

* * *

- targetOrSystem: human FXR (Homo sapiens, UniProt Q96RI1)
- Construct: expressed in transfected cells; host or cells: HepG2
- Sequence (Q96RI1 whole entry): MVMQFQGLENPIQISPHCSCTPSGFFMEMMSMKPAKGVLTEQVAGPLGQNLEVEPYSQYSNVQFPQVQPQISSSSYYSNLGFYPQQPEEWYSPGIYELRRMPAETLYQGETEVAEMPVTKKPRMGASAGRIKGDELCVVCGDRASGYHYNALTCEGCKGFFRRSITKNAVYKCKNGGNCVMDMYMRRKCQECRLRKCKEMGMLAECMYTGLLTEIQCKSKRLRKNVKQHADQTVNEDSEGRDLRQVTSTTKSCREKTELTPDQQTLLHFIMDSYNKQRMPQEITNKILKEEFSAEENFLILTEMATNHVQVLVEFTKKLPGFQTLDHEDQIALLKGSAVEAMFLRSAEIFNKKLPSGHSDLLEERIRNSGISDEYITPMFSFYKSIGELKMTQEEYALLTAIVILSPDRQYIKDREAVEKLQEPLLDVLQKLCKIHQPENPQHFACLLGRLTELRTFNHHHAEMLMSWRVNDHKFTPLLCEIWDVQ
- experimentSummary: FXR responsive luciferase reporter gene assay (FXRE-luc + human FXR expression construct) in HepG2 cells
- Assay type: cell-based
- assayConditions: HepG2, 24 h
As shown below, each of these compounds has a reported Emax at 10 µM value.
Response body: numeric value in %, unit text excluded.

Here is how some compounds turned out for Emax at 10 µM.
C[C@@H](Oc1ccc(Oc2cnc3ccc(I)cc3n2)cc1)C(=O)O; -3
CC(=O)Nc1ccc2ncc(Oc3ccc(O[C@H](C)C(=O)O)cc3)nc2c1; 3
CC(=O)Nc1ccc2ncc(Oc3ccc(OCC(=O)O)cc3)nc2c1; 6
Cc1ccc2ncc(Oc3ccc(O[C@H](C)C(=O)O)cc3)nc2c1; -3
CC(C)(Oc1ccc(Oc2ccc3ccc(Cl)cc3n2)cc1)C(=O)O; 0

Please look at the following compound next.
response.value for CCc1ccc2ccc(Oc3ccc(O[C@H](C)C(=O)O)cc3)nc2c1 (field: Emax at 10 µM) = 15

Where do the numbers come from? From patent EP4583874B1.
